Source listed as patent US9399646B2.

Parameter: DC50. Scope: all listed entries.
Target: ER-α in MCF-7 cells (Homo sapiens, UniProt P03372)
Sequence (P03372 1-595): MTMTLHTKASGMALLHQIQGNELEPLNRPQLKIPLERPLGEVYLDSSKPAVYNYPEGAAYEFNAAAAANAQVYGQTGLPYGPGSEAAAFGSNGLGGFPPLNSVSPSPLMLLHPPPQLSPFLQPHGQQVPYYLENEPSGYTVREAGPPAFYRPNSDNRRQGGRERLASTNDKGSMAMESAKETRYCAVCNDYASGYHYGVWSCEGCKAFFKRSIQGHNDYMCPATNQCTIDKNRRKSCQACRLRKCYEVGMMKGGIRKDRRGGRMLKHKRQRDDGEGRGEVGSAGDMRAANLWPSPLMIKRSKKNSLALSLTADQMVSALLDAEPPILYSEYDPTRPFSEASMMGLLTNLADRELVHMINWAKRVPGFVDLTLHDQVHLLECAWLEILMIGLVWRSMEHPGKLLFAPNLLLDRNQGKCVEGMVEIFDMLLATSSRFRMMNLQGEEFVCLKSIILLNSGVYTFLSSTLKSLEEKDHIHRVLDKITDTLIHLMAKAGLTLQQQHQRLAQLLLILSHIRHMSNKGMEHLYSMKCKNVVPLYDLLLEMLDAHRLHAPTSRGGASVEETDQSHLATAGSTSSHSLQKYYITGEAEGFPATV
Assay: Breast cancer cell ER-α in cell western assay (SP1)
Assay type: cell-based
Set-up: endogenous in cells; host or cells: MCF-7
Conditions: SP1 antibody, 4 or 24 hr post compound addition, read-out: ER-α In Cell Western Assay (SP1) IC50

Solved entries (count: 6):
[[record]]
compound = "CC/C(=C(/c1ccc(/C=C/C(=O)O)cc1)c1ccc2[nH]ncc2c1F)c1cccc(Oc2ccccn2)c1 [Compound 375]"
target = "ER-α in MCF-7 cells (Homo sapiens, UniProt P03372)"
parameter = "DC50"
measured_result = "≤ 100 nM"

[[record]]
compound = "CC/C(=C(/c1ccc(/C=C/c2nn[nH]n2)cc1)c1ccc2scnc2c1)c1ccccc1 [Compound 444]"
target = "ER-α in MCF-7 cells (Homo sapiens, UniProt P03372)"
parameter = "DC50"
measured_result = "≤ 100 nM"

[[record]]
compound = "CC/C(=C(/c1ccc(/C=C/C(=O)O)cc1)c1ccc2[nH]ncc2c1)c1cccc2occc12 [Compound 96]"
target = "ER-α in MCF-7 cells (Homo sapiens, UniProt P03372)"
parameter = "DC50"
measured_result = "≤ 100 nM"

[[record]]
compound = "O=C(/C=C/c1ccc(/C(=C(\\c2ccccc2)C2CCC2)c2ccc3[nH]nc(F)c3c2)cc1)NC1CC1 [Compound 413]"
target = "ER-α in MCF-7 cells (Homo sapiens, UniProt P03372)"
parameter = "DC50"
measured_result = "≤ 100 nM"

[[record]]
compound = "CC/C(=C(/c1ccc(/C=C/C(=O)O)cc1)c1ccc2[nH]ncc2c1)c1cnccn1 [Compound 219]"
target = "ER-α in MCF-7 cells (Homo sapiens, UniProt P03372)"
parameter = "DC50"
measured_result = "> 100 nM"

[[record]]
compound = "CC/C(=C(/c1ccc(/C=C/C(=O)O)cc1)c1ccc2sncc2c1)c1ccccc1 [Compound 156]"
target = "ER-α in MCF-7 cells (Homo sapiens, UniProt P03372)"
parameter = "DC50"
measured_result = "> 100 nM"


We now examine a further compound.
Entry CC/C(=C(/c1ccc(/C=C/C(=O)NS(=O)(=O)Cc2ccccc2)cc1)c1ccc2[nH]ncc2c1)c1ccc(F)cc1Cl [Compound 429] ; DC50 = ≤ 100 nM

---

Parameter: IC50. Scope: all listed entries.
tested on: MCF-7 cells; assay: Breast cancer cell viability assay (CellTiter-Glo, 5 days); type: cell-based; conditions: Homo sapiens, MCF7, 120 h, 5 days' compound exposure

[[record]]
compound = "CC/C(=C(/c1ccc(/C=C/C(=O)O)cc1)c1ccc2cccnc2c1)c1ccc(F)cc1Cl [Compound 289]"
measured_result = "> 100 nM"

[[record]]
compound = "CC/C(=C(/c1ccc(/C=C/C(=O)O)cc1)c1ccc2[nH]ncc2c1)c1cccc(Oc2ccccc2)c1F [Compound 298]"
measured_result = "≤ 100 nM"

[[record]]
compound = "O=C(O)/C=C/c1ccc(/C(=C(\\c2ccccc2Cl)C2CC2)c2cccc3[nH]ncc23)cc1 [Compound 71]"
measured_result = "≤ 100 nM"

[[record]]
compound = "CC/C(=C(/c1ccc(/C=C/C(N)=O)cc1)c1ccc2[nH]ncc2c1)c1ccc(F)cc1Cl [Compound 417]"
measured_result = "≤ 100 nM"

[[record]]
compound = "O=C(O)/C=C/c1ccc(/C(=C(/CCF)c2ccncc2Cl)c2ccc3[nH]ncc3c2)cc1 [Compound 230]"
measured_result = "≤ 100 nM"

[[record]]
compound = "CC/C(=C(/c1ccc(/C=C/C(=O)O)cc1)c1ccc2[nH]ncc2c1)c1cccc(OCCOC)c1 [Compound 341]"
measured_result = "≤ 100 nM"


We now examine a further compound.
Entry CC/C(=C(/c1ccc(/C=C/C(=O)O)cc1)c1ccc2c(c1)OCC(=O)N2)c1ccccc1 [Compound 107] ; IC50 = > 100 nM

---

system: MCF-7 cells; experiment: Breast cancer cell viability assay (CellTiter-Glo, 5 days); format: cell-based; settings: Homo sapiens, MCF7, 120 h, 5 days' compound exposure
Parameter: IC50. Scope: all listed entries.

Solved entries (count: 6):
[[record]]
molecule = "CC/C(=C(/c1ccc(/C=C/C(=O)O)cc1)c1ccc2[nH]ncc2c1)c1cccc(-c2ccccn2)c1 [Compound 390]"
measured_result = "≤ 100 nM"

[[record]]
molecule = "CC/C(=C(/c1ccc(/C=C/c2nn[nH]n2)cc1)c1ccc2scnc2c1)c1ccccc1 [Compound 444]"
measured_result = "> 100 nM"

[[record]]
molecule = "CC/C(=C(/c1ccc(/C=C/C(=O)O)cc1)c1ccn2nncc2c1)c1ccccc1 [Compound 138]"
measured_result = "> 100 nM"

[[record]]
molecule = "CC/C(=C(/c1ccc(/C=C/C(=O)O)cc1)c1ccc2[nH]ncc2c1)c1ccc(OCCCCC(=O)O)cc1 [Compound 354]"
measured_result = "> 100 nM"

[[record]]
molecule = "CC/C(=C(/c1ccc(/C=C/C(=O)O)cc1)c1ccc2[nH]ncc2c1)c1ccc(-c2cncnc2)cc1 [Compound 383]"
measured_result = "> 100 nM"

[[record]]
molecule = "CC/C(=C(/c1ccc(/C=C/C(=O)O)cc1)c1ccc2[nH]ncc2c1)c1ccc(Oc2ncccn2)cc1 [Compound 290]"
measured_result = "≤ 100 nM"


Entry CC/C(=C(/c1ccc(/C=C/C(=O)O)cc1)c1ccc2[nH]ncc2c1)c1ccc(OCCOC)cc1 [Compound 339] ; IC50 = ≤ 100 nM

Entry CC/C(=C(/c1ccc(/C=C/C(=O)O)cc1)c1ccc2[nH]ncc2c1)c1cccc(Oc2ccc(S(C)(=O)=O)cc2)c1 [Compound 373] ; IC50 = ≤ 100 nM

---

tested on: MCF-7 cells; experiment: Breast cancer cell viability assay (CellTiter-Glo, 5 days); type: cell-based; settings: Homo sapiens, MCF7, 120 h, 5 days' compound exposure
pIC50: −log10 of the molar value.
parameter: pIC50

[[record]]
molecule = "CC/C(=C(/c1ccc(/C=C/C(=O)O)cc1)c1ccc2[nH]ncc2c1)c1ccc(N(C)C)cc1 [Compound 62]"
measured_result = "< 7.00"

[[record]]
molecule = "CC/C(=C(/c1ccc(/C=C/C(=O)O)cc1)c1ccc2scnc2c1)c1cccc(Oc2ccccn2)c1 [Compound 300]"
measured_result = "< 7.00"

[[record]]
molecule = "O=C(O)/C=C/c1ccc(/C(=C(\\c2ccc(F)cc2Cl)C2CCC2)c2ccc3scnc3c2)cc1 [Compound 278]"
measured_result = "≥ 7.00"


Entry CC/C(=C(/c1ccc(/C=C/C(=O)O)cc1)c1ccn2cnnc2c1)c1ccccc1 [Compound 134] ; pIC50 = < 7.00

Entry CC/C(=C(/c1ccc(/C=C/C(=O)O)cc1)c1cc(F)c2[nH]ccc2c1)c1ccc(Cl)cc1Cl [Compound 253] ; pIC50 = ≥ 7.00

Entry CC/C(=C(/c1ccc(/C=C/C(=O)O)cc1)c1ccc2[nH]ncc2c1)c1cccc(Oc2ccncn2)c1 [Compound 364] ; pIC50 = ≥ 7.00

Entry CC/C(=C(/c1ccc(/C=C/C(=O)O)cc1)c1ccc2[nH]ncc2c1F)c1cccc(Oc2ccc(S(C)(=O)=O)nc2)c1 [Compound 378] ; pIC50 = ≥ 7.00

---

biological target: ER-α in MCF-7 cells (Homo sapiens, UniProt P03372); test: Breast cancer cell ER-α in cell western assay (SP1); type: cell-based; set-up: endogenous in cells; host or cells: MCF-7; conditions: SP1 antibody, 4 or 24 hr post compound addition, read-out: ER-α In Cell Western Assay (SP1) IC50
Parameter: DC50. Scope: all listed entries.

Solved entries (count: 5):
[[record]]
compound = "CC/C(=C(/c1ccc(/C=C/C(=O)O)cc1)c1ccc2[nH]ncc2c1)c1ccc(-c2cnsc2)cc1 [Compound 395]"
measured_result = "≤ 100 nM"

[[record]]
compound = "CC/C(=C(/c1ccc(/C=C/C(=O)O)cc1)c1coc2ccccc12)c1ccc(F)cc1Cl [Compound 170]"
measured_result = "≤ 100 nM"

[[record]]
compound = "CC/C(=C(/c1ccc(/C=C/C(=O)O)cc1)c1ccc2[nH]ncc2c1)c1cccc2ccccc12 [Compound 50]"
measured_result = "≤ 100 nM"

[[record]]
compound = "CC/C(=C(/c1ccc(/C=C/C(=O)O)cc1)c1ccc2[nH]ncc2c1F)c1cscc1C [Compound 242]"
measured_result = "≤ 100 nM"

[[record]]
compound = "CC/C(=C(/c1ccc(/C=C/C(=O)O)cc1)c1ccc2[nH]ncc2c1)c1ccc(C(=O)NC)cc1F [Compound 213]"
measured_result = "> 100 nM"


Entry CC/C(=C(/c1ccc(/C=C/C(=O)O)cc1)c1ccc2scnc2c1)c1ccccc1Cl [Compound 280] ; DC50 = ≤ 100 nM

Entry CC/C(=C(/c1ccc(/C=C/C(=O)O)cc1)c1ccc2cccnc2c1)c1ccc(F)cc1Cl [Compound 289] ; DC50 = ≤ 100 nM

Entry CC/C(=C(/c1ccc(/C=C/C(=O)O)cc1)c1ccc2c(c1)CCC(=O)N2)c1ccccc1 [Compound 100] ; DC50 = > 100 nM
